Test system: SF-268 CNS
Procedure Summary: NCI-60 one-dose screen, 48 h (100 = growth as untreated, 0 = no growth, -100 = all killed)
Assay Setup: 10 µM unless noted
Compounds without any hit were thinned out: in the full panel of roughly 83,000, 20% have a hit.
Reported Property: growth (%)

O=C(NC1CCCCCC1)c1ccc2c(=O)n3c(nc2c1)CCCCC3    110
O=C(O)c1cc2ccccc2s1    107
COC(=O)c1c(C(=O)OC)c2ccc3c4ncccc4ccc3n2c1C(=O)c1ccc(C)cc1    98.5
[2H]C([2H])([2H])Oc1ccc(/C=C/C(=O)/C=C(O)/C=C/c2ccc(OC([2H])([2H])[2H])c(OC([2H])([2H])[2H])c2)cc1OC([2H])([2H])[2H]    67.2
COc1cc2c(cc1-c1c(C)noc1C)ncc1nc(C3CCOCC3)n(C3CCC(OC(F)F)CC3)c12 (stereo not given)    64.9

----------
Below, each of the compounds is paired with its reported growth value.
Test system: SNB-75 CNS
Procedure Summary: NCI-60 one-dose screen, 48 h (100 = growth as untreated, 0 = no growth, -100 = all killed)
Assay Setup: 10 µM unless noted
This is part of a sample that, as a whole, favours compounds with a hit. Of some 83,000 tested, about 20% had one in any assay.
Reported Property: growth (%)

COC(=O)c1nc(-c2ccccc2)oc1S(=O)(=O)NCC(c1ccc(Cl)cc1)N1CCCCC1 (stereo not given)    79
CN(C)c1ccc(/C=N/NC(=O)CSc2nc3sc4c(c3c(=O)n2-c2ccccc2)CCCCC4)cc1    -2.33
Clc1nc(N2CCC[N+]3(CC2)CC[N+]2(CCCNCC2)CC3)nc(N2CCC[N+]3(CC2)CC[N+]2(CCCNCC2)CC3)n1 (stereo not given)    123
Cc1c(CC(=O)Nc2ccccc2)nnn1-c1ccccc1    104
COc1cccc(C2C3=C(COC3=O)N(CCO)c3cc4c(cc32)OCCO4)c1 (stereo not given)    -14.1
Cc1c(Cl)cccc1NC(=O)c1sc2nc3c(cc2c1N)CCCC3    29.6
CSc1nc(N)c2c(n1)NC(c1ccccc1)C1CCc3ccccc3C1=N2 (stereo not given)    84
CCOc1ccccc1NC(=O)CCC(=O)OC    75.7
O=C(NC1CCCCCC1)c1ccc2c(=O)n3c(nc2c1)CCCCC3    62.9
Cn1ccnc1C(=O)/C=C/c1ccc(C(=O)Nc2c(F)c(F)c(F)c(F)c2F)cc1    7.64
CCN1CCN(C(=O)[C@]23CC[C@@H](C)[C@H](C)[C@@H]2C2=CC[C@@H]4[C@@]5(C)C/C(=C/c6ccncc6)C(=O)C(C)(C)[C@@H]5CC[C@@]4(C)[C@]2(C)CC3)CC1    19.5
C=C(C)[C@@H]1CC[C@]2(COCCCNCCCN)CC[C@]3(C)[C@H](CC[C@@H]4[C@@]5(C)CC[C@H](OCCCN)C(C)(C)[C@@H]5CC[C@]43C)[C@@H]12    10.1
COc1cc(C2=Nc3c(N)nc(N)nc3NC(c3cccc(Nc4ccnc5cc(C(F)(F)F)ccc45)c3)C2)cc(OC)c1OC (stereo not given)    68.9
Cc1cc(=O)oc2cc(Oc3nc(-c4ccccc4)cn4c(-c5ccccc5)cnc34)ccc12    -1.39
CCOc1ccc(N2C(=O)CCSC2=S)cc1    90.5
CO[C@H]1CC(c2ccc[nH]2)=N[C@]12O[C@@H](C)C[C@@H]1CCCCCCCc3ccc([nH]3)[C@H]12    3.5
COc1ccc(NC(=O)c2ccc(NC3=C(c4ccc(Cl)cc4)C(=O)NC3=O)cc2)cc1    85.7
CCCCCCCCNC(=O)[C@@H](N)CSCOC(C)=O    -17.3
CCCCCCC/C=N/NC(=O)c1ccc(-n2cc(-c3ccccc3)nn2)cc1    86.3
Cc1ccc(Nc2oc(-c3ccccc3)nc2[P+](c2ccccc2)(c2ccccc2)c2ccccc2)cc1    -2.21
